procedure details: Quantitative High-Throughput drug screen in 47 multiple myeloma cell lines against the NCATS MIPE library collection: OPM1_PLB cell viability assay (AID 1918989); note: nearly all actives have a fitted effect of over 40% in size
test context: CellTiter-Glo, 48 h; series mostly up to 45.8 µM
Records with an inconclusive call do not appear. Active and inactive are the calls of the source. Calls come from the whole dose curve; as a rule, active = well fitted cell-killing curve with a large enough effect; inconclusive = small, poorly fitted or top-dose-only effect, or effect the other way; inactive = no such curve, though single readings can be large or run the other way.
Outcomes: T = active, F = inactive

- O=C(Nc1ccc(OC(F)(F)F)cc1)c1sccc1NCc1ccnc2ccccc12: T
- CN(C)CCCNC(=O)c1ccc(-c2cc(O)c3ncccc3c2)cc1: T
- NCc1c[nH]c(=S)n1[C@H]1CCc2c(F)cc(F)cc2C1: T
- CNC(=O)[C@H](Cc1ccccc1)NC(=O)[C@H](CC(C)C)[C@H](CSc1cccs1)C(=O)NO: F
- CC(C)CN(C[C@H](O)[C@H](Cc1ccccc1)NC(=O)O[C@H]1CCOC1)S(=O)(=O)c1ccc(N)cc1: T

* * *

Tested on: MCC-13
procedure details: qHTS assay to identify novel small-molecules to repurpose for Merkel cell carcinoma treatment (AID 1296009); note: nearly all actives have a fitted effect of over 60% in size
test context: MCC and control cell lines, CellTiter-Glo viability, 72 h; series mostly up to 46 µM
Inconclusive results are not listed. Activity calls are given as the source filed them. Calls follow the shape of the dose curve; as a rule, active = well fitted inhibition curve with a large enough effect; inconclusive = small, poorly fitted or top-dose-only effect; inactive = flat fitted curve, though single readings scatter.
Classes used: active, inactive

- Cn1c(=O)c(Oc2ccc(F)cc2F)cc2cnc(NC3CCOCC3)nc21: inactive
- COC(=O)[C@H](c1ccccc1Cl)N1CCc2sccc2C1: inactive
- CN(C)CCOc1ccc(C(=C(CCCl)c2ccccc2)c2ccccc2)cc1: inactive
- CCCCCCCCCCCCCC(=O)N[C@H](CO)[C@H](O)c1ccc([N+](=O)[O-])cc1: inactive
- CN(C)c1ccccc1CN1CCCN(Cc2ccccc2N(C)C)C1c1ccncc1: inactive
- CN1CCc2c(n(Cc3ccc(C(=O)NO)cc3)c3ccccc23)C1: inactive
- N#Cc1ccc(Oc2ccc3c(c2)COB3O)cc1: inactive
- Nc1ncnc2c1ncn2[C@@H]1O[C@H](CO)[C@@H](O)[C@@H]1O: inactive
- COc1cc2c(cc1OC)[C@@H]1Cc3ccc(OC)c(OC)c3CN1CC2: inactive
- CC(C)c1c(C(=O)Nc2ccccc2)c(-c2ccccc2)c(-c2ccc(F)cc2)n1CC[C@H](O)C[C@@H](O)CC(=O)O: inactive
- c1ccc(-c2oc3ncnc(NC[C@@H]4CCCO4)c3c2-c2ccccc2)cc1: inactive
- C=C[C@@H]1CN2CCC1C[C@@H]2C(O)c1ccnc2ccc(OC)cc12 (stereo partly drawn): inactive
- O=C(O)c1nc(=O)[nH]c(=O)[nH]1: inactive
- O=C1CN2Cc3c(ccc(Cl)c3Cl)N=C2N1: inactive
- COc1ccc(-c2cc3nccn3c(Nc3ncccc3C(N)=O)n2)cc1OC: inactive
- CO[C@H]1O[C@@H]2O[C@@]3(C)CC[C@@H]4[C@@H](C)CC[C@@H]([C@H]1C)[C@@]24OO3: inactive
- NCC1CCC(C(=O)O)CC1 (stereo not drawn): inactive
- N#CC1(c2cccc(C(=O)Nc3cc(Oc4ccc5nc(NC(=O)C6CC6)sc5n4)ccc3F)c2Cl)CC1: active
- CC(C)=CCCC(C)=CCCC(C)=CCCC(C)=CCCC(C)=CCCC(C)=CCCC(C)=CCCC(C)=CCCC(C)=CCO: inactive
- Cc1nc(NC(=O)N2CCC[C@@H]2C(N)=O)sc1-c1csc(C(C)(C)C)n1: inactive
- CC(=O)O[C@]1(C(C)=O)CC[C@H]2[C@@H]3C=C(Cl)C4=CC(=O)[C@@H]5C[C@H]5[C@]4(C)[C@@H]3CC[C@@]21C: inactive
- O=C(Nc1cccc2c(=O)cc(-c3nn[nH]n3)oc12)c1ccc(OCCCCc2ccccc2)cc1: inactive
- Fc1ccc(CNc2ncnc3ccc(F)cc23)cc1: inactive
- FC(F)(F)c1ccc(C=Cc2nc(COc3ccc(CCCCn4ccnn4)cc3)co2)cc1: active
- COc1nccc(-c2c(-c3ccc(F)cc3)ncn2C2CCC(O)CC2)n1 (stereo not drawn): inactive
- O=C1C(c2c(O)[nH]c3ccccc23)=Nc2ccccc21: inactive
- CC1(C)[C@H]2CC[C@]3(C)[C@@H](C(=O)C=C4[C@@H]5C[C@@](C)(C(=O)O)CC[C@]5(C)CC[C@]43C)[C@@]2(C)CC[C@@H]1O: inactive
- CCCCC(C=O)NC(=O)C(CC(C)C)NC(=O)OCc1ccccc1 (stereo not drawn): inactive
- CC(C)[C@H](O)C(=O)N[C@@H](C)C(=O)N[C@@H]1C(=O)N(C)CCc2ccccc21: inactive
- CNC(=O)[C@H](CC1=CN=C2C=CCC=C12)NC(=O)[C@@H](CC(=O)NO)CC(C)C: inactive
- CSc1cccc(Nc2ncc3cc(-c4c(Cl)cccc4Cl)c(=O)n(C)c3n2)c1: inactive
- COc1ccc2nc3cc(Cl)ccc3c(Nc3cc(CN4CCCC4)c(O)c(CN4CCCC4)c3)c2n1: inactive
- Cc1c(C(=O)Nc2ccc(N3C[C@@H](C)O[C@@H](C)C3)nc2)cccc1-c1ccc(OC(F)(F)F)cc1: inactive
- N#CC(c1ccc(Cl)cc1)c1c(Cl)cc(-n2ncc(=O)[nH]c2=O)cc1Cl (stereo not drawn): inactive
- CC[C@@H]([C@H](C)O)n1ncn(-c2ccc(N3CCN(c4ccc(OCC5CO[C@@](Cn6cncn6)(c6ccc(F)cc6F)C5)cc4)CC3)cc2)c1=O (stereo partly drawn): inactive
- OC[C@H]1O[C@@H](O[C@H]2[C@@H](O)[C@@](O)(CO)O[C@@H]2CO)[C@H](O)[C@@H](O)[C@@H]1O: inactive
- NC(=O)c1ccc(N(C(N)=O)c2c(F)cccc2F)nc1-c1ccc(F)cc1F: inactive
- CC1C(=O)OC2C(O)C34C5CC(C(C)(C)C)C36C(OC(=O)C6O)OC4(C(=O)O5)C12O (stereo not drawn): inactive
